target: Fuc(a1-2)[Gal(a1-3)]Gal(b1-4)[Fuc(a1-3)]GlcNAc; assay: glycan array binding signal (z-score within array); higher = stronger binding; conditions: glycan notation: IUPAC condensed, linker removed
Only a selection was taken, and the strongest signals are over-represented in it overall.
Recorded Endpoint: glycan array binding signal (z-score)
Just the number, please, no unit attached.

Some solved entries appear below for comparison.
- Binder: "SJA (Sophora japonica) (protein) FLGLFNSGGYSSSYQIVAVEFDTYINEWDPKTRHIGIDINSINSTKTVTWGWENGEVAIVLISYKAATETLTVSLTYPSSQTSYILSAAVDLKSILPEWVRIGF"
  Reported Measurement: 6.46
- Binder: "rMpL (Macrolepiota procera) (protein) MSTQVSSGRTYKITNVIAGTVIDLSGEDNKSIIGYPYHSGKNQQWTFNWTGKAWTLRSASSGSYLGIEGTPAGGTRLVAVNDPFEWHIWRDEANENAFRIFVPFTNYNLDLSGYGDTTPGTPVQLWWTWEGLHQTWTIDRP"
  Reported Measurement: -0.216
- Binder: "XL-35 (Xenopus laevis) (protein) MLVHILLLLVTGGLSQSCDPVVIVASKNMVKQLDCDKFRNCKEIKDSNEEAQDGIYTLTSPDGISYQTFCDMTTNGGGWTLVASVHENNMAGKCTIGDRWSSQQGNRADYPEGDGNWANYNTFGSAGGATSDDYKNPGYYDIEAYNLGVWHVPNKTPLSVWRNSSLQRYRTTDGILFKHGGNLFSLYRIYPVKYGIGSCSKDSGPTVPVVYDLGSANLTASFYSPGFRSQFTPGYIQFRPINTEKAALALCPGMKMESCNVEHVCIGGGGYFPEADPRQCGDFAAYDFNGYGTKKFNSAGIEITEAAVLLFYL"
  Reported Measurement: -0.202
- Binder: "CD23 (Homo sapiens) (protein) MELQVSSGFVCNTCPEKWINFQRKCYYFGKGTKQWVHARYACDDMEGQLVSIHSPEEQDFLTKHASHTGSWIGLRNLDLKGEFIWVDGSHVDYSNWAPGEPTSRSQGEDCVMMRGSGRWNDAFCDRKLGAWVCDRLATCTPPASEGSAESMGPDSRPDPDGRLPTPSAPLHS"
  Reported Measurement: 0.988
- Binder: "Sebin2 (Coprinopsis cinerea), A8PE78 (protein) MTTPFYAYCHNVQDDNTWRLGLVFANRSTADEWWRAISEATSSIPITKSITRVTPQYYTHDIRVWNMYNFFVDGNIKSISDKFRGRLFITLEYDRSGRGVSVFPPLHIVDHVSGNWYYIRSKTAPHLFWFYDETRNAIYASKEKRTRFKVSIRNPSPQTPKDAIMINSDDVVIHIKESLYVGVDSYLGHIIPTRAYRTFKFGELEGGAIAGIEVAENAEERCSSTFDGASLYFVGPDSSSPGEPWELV"
  Reported Measurement: -0.033

// switching to the query binder
Fill in: glycan array binding signal (z-score) of HFR-1 (Triticum aestivum) (protein) MSPQSFTLETTTTTPAAKGSDPSYFQSAPACHEMIQHKELLLHLYAYQNVQKTPDANQAVIVESKRPECFGILAANDWTVYDGPAHNANLVAHAQGLHLGASMAKENWFICFNMVFVNQRFTGSSFKVMGDFQGTAHNGEWAIVGGTGEFAYAQGVIAFKKTQQSERNARMELHVRAMCLSFLRPLLSLGDGSAVAKIGPWGKMSGELLDIPSTPQRLERITIRHGVVIDSLAFSFIDKAGEPYNVGPWGGRRGDNKDTIELAPSEIVTEVSGTVGIFAEDNVEYNAIASLTITTNHRPYGPFGETQSTPFSVPVQDNNNIVGFFACAGKYVEALGVYVRSPVST is ___
-0.225

Sourced from the supplement of paper PMC8728848
